Data provenance: ChEMBL document CHEMBL1147446

Form field: IC50 (one value per entry).
- tested_system: UniProt:P51681
- Sequence (P51681 whole entry): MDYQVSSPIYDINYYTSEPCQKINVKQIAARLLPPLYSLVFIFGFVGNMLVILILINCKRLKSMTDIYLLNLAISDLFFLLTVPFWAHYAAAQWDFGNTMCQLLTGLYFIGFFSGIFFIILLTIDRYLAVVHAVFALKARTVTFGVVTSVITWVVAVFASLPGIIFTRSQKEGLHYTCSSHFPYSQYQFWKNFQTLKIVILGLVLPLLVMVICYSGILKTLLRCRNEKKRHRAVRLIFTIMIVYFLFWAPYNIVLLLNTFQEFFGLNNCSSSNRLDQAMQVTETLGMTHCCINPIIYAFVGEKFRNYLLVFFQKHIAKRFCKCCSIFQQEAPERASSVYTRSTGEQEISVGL
- run_description: Inhibitory concentration for displacement of [125I]-MIP-1 alpha from recombinant human CC chemokine receptor 5 (CCR5) expressed in CHO cell
Write down the numeric answer in nM and omit the unit.

[
  {
    "structure_as_smiles": "CCn1nc(Cc2ccc(S(=O)(=O)c3ccccc3)cc2)cc1C1CCN(C[C@H]2CN([C@@H](C(=O)O)C(C)(C)C)C[C@@H]2c2cccc(F)c2)CC1",
    "quantity_unit": "nM",
    "IC50": 1.1
  },
  {
    "structure_as_smiles": "CCn1nc(Cc2ccc(OCc3ccccc3)cc2)cc1C1CCN(C[C@H]2CN([C@@H](C(=O)O)C(C)(C)C)C[C@@H]2c2cccc(F)c2)CC1",
    "quantity_unit": "nM",
    "IC50": 1.1
  },
  {
    "structure_as_smiles": "CCCCOc1ccc(Cc2cc(C3CCN(C[C@H]4CN([C@@H](C(=O)O)C(C)(C)C)C[C@@H]4c4cccc(F)c4)CC3)n(CC)n2)cc1",
    "quantity_unit": "nM",
    "IC50": 0.8
  },
  {
    "structure_as_smiles": "CC[C@@H](C)[C@H](C(=O)O)N1C[C@H](CN2CCC(c3cc(Cc4ccc(C(F)(F)F)cc4)nn3CC)CC2)[C@@H](c2cccc(F)c2)C1",
    "quantity_unit": "nM",
    "IC50": 0.5
  },
  {
    "structure_as_smiles": "CCn1nc(Cc2ccc(-c3ccccc3)cc2)cc1C1CCN(C[C@H]2CN([C@@H](C(=O)O)C(C)C)C[C@@H]2c2cccc(F)c2)CC1",
    "quantity_unit": "nM",
    "IC50": 0.3
  }
]

compound CCn1nc(Cc2ccc(F)cc2)cc1C1CCN(C[C@H]2CN([C@@H](C(=O)O)C3CCCCC3)C[C@@H]2c2cccc(F)c2)CC1 , IC50 observed: 1.1

compound CCCOc1ccc(Cc2cc(C3CCN(C[C@H]4CN([C@@H](C(=O)O)C(C)C)C[C@@H]4c4cccc(F)c4)CC3)n(CC)n2)cc1 , IC50 observed: 0.8

compound CC[C@@H](C)[C@H](C(=O)O)N1C[C@H](CN2CCC(c3cc(Cc4ccc(OCc5ccccc5)cc4)nn3CC)CC2)[C@@H](c2cccc(F)c2)C1 , IC50 observed: 0.5

compound CC[C@H](C)[C@H](C(=O)O)N1C[C@H](CN2CCC(c3cc(CC4CCCCC4)nn3CC)CC2)[C@@H](c2cccc(F)c2)C1 , IC50 observed: 1.2

compound CCn1nc(Cc2ccc(OCC(F)(F)F)cc2)cc1C1CCN(C[C@H]2CN([C@@H](C(=O)O)C(C)(C)C)C[C@@H]2c2cccc(F)c2)CC1 , IC50 observed: 0.6

---

Form field: IC50 (one value per entry).
- run_description: Inhibitory activity against rat Na+ channel site 2 at 10 uM
Write down the numeric answer in µM and omit the unit.

Take a look at these entries with their results.
[
  {
    "structure_as_smiles": "CCn1nc(Cc2ccc(OC)c(OC)c2)cc1C1CCN(C[C@H]2CN([C@@H](C(=O)O)C(C)(C)C)C[C@@H]2c2cccc(F)c2)CC1",
    "measured_value": 3.2
  },
  {
    "structure_as_smiles": "CC[C@H](C)[C@H](C(=O)O)N1C[C@H](CN2CCC(c3cc(Cc4ccc(OC(F)(F)F)cc4)nn3CC)CC2)[C@@H](c2cccc(F)c2)C1",
    "measured_value": 1.2
  }
]

With those in mind, consider the next molecule.
molecule CC[C@H](C)[C@H](C(=O)O)N1C[C@H](CN2CCC(c3cc(Cc4ccc(OC)c(OC)c4)nn3CC)CC2)[C@@H](c2cccc(F)c2)C1 , IC50 observed: 7.2

---

Form field: inhibition (one value per entry).
- tested_system: Sodium-dependent dopamine transporter (Homo sapiens, UniProt Q01959)
- Sequence (Q01959 whole entry): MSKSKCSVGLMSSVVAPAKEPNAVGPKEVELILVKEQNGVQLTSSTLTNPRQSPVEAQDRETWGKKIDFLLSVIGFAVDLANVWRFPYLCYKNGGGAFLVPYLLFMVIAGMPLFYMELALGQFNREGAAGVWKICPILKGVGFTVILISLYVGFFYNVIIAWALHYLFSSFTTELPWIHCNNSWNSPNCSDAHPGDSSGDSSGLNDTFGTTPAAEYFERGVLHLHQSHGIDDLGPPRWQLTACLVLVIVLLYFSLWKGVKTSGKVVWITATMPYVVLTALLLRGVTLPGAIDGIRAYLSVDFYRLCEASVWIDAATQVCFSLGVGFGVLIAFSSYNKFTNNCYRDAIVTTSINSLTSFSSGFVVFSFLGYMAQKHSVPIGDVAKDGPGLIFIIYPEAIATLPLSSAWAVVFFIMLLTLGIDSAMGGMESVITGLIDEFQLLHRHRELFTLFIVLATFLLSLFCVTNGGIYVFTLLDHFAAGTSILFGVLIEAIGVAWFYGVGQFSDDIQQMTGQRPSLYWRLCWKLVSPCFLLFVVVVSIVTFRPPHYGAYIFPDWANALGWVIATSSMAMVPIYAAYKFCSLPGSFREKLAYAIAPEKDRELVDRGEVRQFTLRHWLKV
- run_description: Inhibitory activity against human dopamine transporter at 10 uM
Write down the numeric answer in % and omit the unit.

Take a look at these entries with their results.
[
  {
    "structure_as_smiles": "CC[C@H](C)[C@H](C(=O)O)N1C[C@H](CN2CCC(c3cc(Cc4ccc(OC)c(OC)c4)nn3CC)CC2)[C@@H](c2cccc(F)c2)C1",
    "quantity_unit": "%",
    "inhibition": -4
  },
  {
    "structure_as_smiles": "CCn1nc(Cc2ccccc2)cc1C1CCN(C[C@H]2CN([C@@H](C(=O)O)C(C)C)C[C@@H]2c2cccc(F)c2)CC1",
    "quantity_unit": "%",
    "inhibition": 15
  },
  {
    "structure_as_smiles": "CCn1nc(Cc2ccc(OC)c(OC)c2)cc1C1CCN(C[C@H]2CN([C@@H](C(=O)O)C(C)(C)C)C[C@@H]2c2cccc(F)c2)CC1",
    "quantity_unit": "%",
    "inhibition": 9
  },
  {
    "structure_as_smiles": "CCn1nc(Cc2ccc(S(C)(=O)=O)cc2)cc1C1CCN(C[C@H]2CN([C@@H](C(=O)O)C(C)(C)C)C[C@@H]2c2cccc(F)c2)CC1",
    "quantity_unit": "%",
    "inhibition": 36
  }
]

compound CCn1nc(Cc2ccc(C#N)cc2)cc1C1CCN(C[C@H]2CN([C@@H](C(=O)O)C(C)(C)C)C[C@@H]2c2cccc(F)c2)CC1 , inhibition observed: 17

---

- System: HeLa
- run_description: Antiviral activities in a cell culture HIV-1 infectivity inhibition assay using HeLa cells plus 50% normal human serum
- Type: functional
Form field: IC90 (one value per entry).

Take a look at these entries with their results.
[
  {
    "structure_as_smiles": "CC[C@@H](C)[C@H](C(=O)O)N1C[C@H](CN2CCC(c3cc(Cc4ccccc4)nn3CC)CC2)[C@@H](c2cccc(F)c2)C1",
    "measured_value": "0.3 µM"
  },
  {
    "structure_as_smiles": "CCOc1ccc(Cc2cc(C3CCN(C[C@H]4CN([C@@H](C(=O)O)[C@@H](C)CC)C[C@@H]4c4cccc(F)c4)CC3)n(CC)n2)cc1",
    "measured_value": "0.033 µM"
  },
  {
    "structure_as_smiles": "CCn1nc(Cc2ccc(OC)c(C#N)c2)cc1C1CCN(C[C@H]2CN([C@@H](C(=O)O)C(C)C)C[C@@H]2c2cccc(F)c2)CC1",
    "measured_value": "0.3 µM"
  },
  {
    "structure_as_smiles": "CCn1nc(Cc2ccc(Oc3ccccc3)cc2)cc1C1CCN(C[C@H]2CN([C@@H](C(=O)O)C3CCCCC3)C[C@@H]2c2cccc(F)c2)CC1",
    "measured_value": "0.1 µM"
  },
  {
    "structure_as_smiles": "CCn1nc(Cc2ccc(OC(F)F)cc2)cc1C1CCN(C[C@H]2CN([C@@H](C(=O)O)C(C)C)C[C@@H]2c2cccc(F)c2)CC1",
    "measured_value": "0.1 µM"
  }
]

With those in mind, consider the next compound.
compound CCn1nc(Cc2ccc(OC3CC3)cc2)cc1C1CCN(C[C@H]2CN([C@@H](C(=O)O)C(C)(C)C)C[C@@H]2c2cccc(F)c2)CC1 , IC90 observed: 0.033 µM

---

- run_description: Half life in dog (dosed as a mixture of five compounds at 0.5 mpk each via iv only)
- Type: ADME, organism-based, Canis lupus familiaris
- condition_label: in vivo
Form field: half-life (one value per entry).
Write down the numeric answer in h and omit the unit.

[
  {
    "structure_as_smiles": "CCn1nc(Cc2ccccc2)cc1C1CCN(C[C@H]2CN([C@@H](C(=O)O)C(C)(C)C)C[C@@H]2c2cccc(F)c2)CC1",
    "measured_value": 0.75
  },
  {
    "structure_as_smiles": "CC[C@H](C)[C@H](C(=O)O)N1C[C@H](CN2CCC(c3cc(Cc4ccc(OC(F)(F)F)cc4)nn3CC)CC2)[C@@H](c2cccc(F)c2)C1",
    "measured_value": 3.1
  },
  {
    "structure_as_smiles": "CCn1nc(Cc2ccc(C(F)(F)F)cc2)cc1C1CCN(C[C@H]2CN([C@@H](C(=O)O)C(C)(C)C)C[C@@H]2c2cccc(F)c2)CC1",
    "measured_value": 2.8
  },
  {
    "structure_as_smiles": "CCOc1ccc(Cc2cc(C3CCN(C[C@H]4CN([C@@H](C(=O)O)C(C)(C)C)C[C@@H]4c4cccc(F)c4)CC3)n(CC)n2)cc1",
    "measured_value": 1.8
  },
  {
    "structure_as_smiles": "CCn1nc(Cc2ccc(OC)c(OC)c2)cc1C1CCN(C[C@H]2CN([C@@H](C(=O)O)C(C)(C)C)C[C@@H]2c2cccc(F)c2)CC1",
    "measured_value": 2.1
  }
]

With those in mind, consider the next compound.
compound CCn1nc(Cc2ccc(S(C)(=O)=O)cc2)cc1C1CCN(C[C@H]2CN([C@@H](C(=O)O)C(C)(C)C)C[C@@H]2c2cccc(F)c2)CC1 , half-life observed: 0.55
